# ASSAY_DETAILS: differential killing of epithelial or mesenchymal cells, primary screen, imaging, PC-3E GFP, TEM4-18 mCherry, co-culture (AID 1345086);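 further: cells exposed to compound for 72 h before imaging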;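 on red/green cell ratio (normalised): normalised mesenchymal count divided by normalised epithelial count so high means epithelial killing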
# ASSAY_SETUP: imaging cell counts, at 1 µM, actives lie on both sides, counts scaled to control wells, 1 = unselective
Active and inactive are the calls of the source.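 How the source made its calls: active means compounds killing one labelled cell type while sparing the other, by normalised counts and ratio limits, not self-fluorescent; inactive means the rest.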
ASSAY_READOUT: red/green cell ratio (normalised)

Q: Which measured red/green cell ratio (normalised) value corresponds to CC(C)/C(O)=C1/C(=O)O[C@@H](c2ccoc2)[C@]2(C)C(O)[C@@H](O)[C@@]34OC5(C)OC67CC(C)(C(O)[C@]6(O)[C@@H](O)[C@]3(O5)C12)[C@H](CC(=O)O)C74C (some centres undefined) ?
A: 1.06 (inactive)

Q: C=C1C(=O)OC(C(=O)O)C1(O)CCCCCCCCC (centres undefined) , same question.
A: 0.96 (inactive)

Q: CC12CCC3c4ccc(O)cc4CCC3C1C[C@H](O)[C@@H]2O (some centres undefined) , same question.
A: 0.97 (inactive)

Q: C/C=C\C1=C(C(=O)O)N2C(=O)C(NC(=O)C(N)c3ccc(O)cc3)C2SC1 (centres undefined) , same question.
A: 1.07 (inactive)

Q: COC(=O)C[C@@H]1C2(C)C(=O)[C@@H](CC3=C4C=C(OC)O[C@@H](c5ccoc5)[C@]4(C)CCC32)[C@H](O)C1(C)C (some centres undefined) , same question.
A: 1.13 (inactive)

Q: C=CC(C)(C)c1cccc2[nH]c3c(c12)C[C@@H]1CC[C@@]2(O)C4=CC(=O)[C@@H]5O[C@@]4(CC[C@]2(C)[C@@]31C)CC5(C)C , same question.
A: 1 (inactive)

Q: Nc1ccn(C2O[C@H](CO)[C@@H](O)[C@H]2O)c(=O)n1 (some centres undefined) , same question.
A: 1.13 (inactive)

Q: O=c1cccc2ccc(O)c(O)c2c1O , same question.
A: 1.04 (inactive)

Q: O=C(O)C1=CC(=C(c2ccc(O)c(C(=O)O)c2)c2ccc(O)c(C(=O)O)c2)C=CC1=O , same question.
A: 1.1 (inactive)

----------
# ASSAY_DETAILS: differential killing of epithelial or mesenchymal cells, primary screen, imaging, PC-3E GFP, TEM4-18 mCherry, co-culture (AID 1345086);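 further: cells exposed to compound for 72 h before imaging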
# ASSAY_SETUP: imaging cell counts, measured here: epithelial PC-3E GFP cell survival, at 1 µM
ASSAY_READOUT: normalised cell number
Enter a number only.

Below: 6 compounds and their reported normalised cell number.
COMPOUND: CO[C@H]1/C=C/O[C@@]2(C)Oc3c(C)c(O)c4c(O)c(c(/C=N/N5CCN(C)CC5)c(O)c4c3C2=O)NC(=O)/C(C)=C\C=C\[C@H](C)[C@H](O)[C@@H](C)[C@@H](O)[C@@H](C)[C@H](CC(C)=O)[C@@H]1C
ASSAY_READOUT: normalised cell number
NUMBER: 1.05
--
COMPOUND: CC(C)CCCC(C)[C@H]1CCC2C3CC=C4C[C@@H](O)CC[C@]4(C)C3CC[C@@]21C (some centres not stated)
ASSAY_READOUT: normalised cell number
NUMBER: 1.14
--
COMPOUND: NCCC[C@H](N)CC(=O)NC1CNC(=O)[C@H]([C@H]2C[C@H](O)N=C(N)N2)NC(=O)/C(=C/NC(N)=O)NC(=O)[C@H](CO)NC(=O)[C@H](CO)NC1=O (some centres not stated)
ASSAY_READOUT: normalised cell number
NUMBER: 1.24
--
COMPOUND: Cc1ccc(S[C@H]2OC(CO)C(O)[C@@H]3OC(=O)N[C@H]23)cc1 (some centres not stated)
ASSAY_READOUT: normalised cell number
NUMBER: 1.01
--
COMPOUND: COc1cc(O)c2c(c1)[C@@H](O)[C@@]13CO[C@@H](O)[C@@]1(O3)C2=O
ASSAY_READOUT: normalised cell number
NUMBER: 1.01
--
COMPOUND: CC(=O)OC/C=C(\C)CC/C=C(\C)CC/C=C(\C)CC/C=C(\C)CC/C=C(\C)CC/C=C(\C)CC/C=C(\C)CC/C=C(\C)CCC=C(C)C
ASSAY_READOUT: normalised cell number
NUMBER: 1.05

Q: Which measured normalised cell number value corresponds to CC(=O)Nc1ccc(S(=O)(=O)Nc2onc(C)c2C)cc1 ?
A: 1

Q: CC(O)CC(C)(C)O (configuration not stated) , same question.
A: 1

Q: CC(=O)Nc1ccc(OC(C)=O)cc1 , same question.
A: 1.25

Q: Cc1cn(CC(=O)O)c(=O)[nH]c1=O , same question.
A: 1.15

Q: CC1=C2[C@](C)(C=CC1=O)C[C@H](O)[C@H]1[C@H](C)C(=O)O[C@]21C , same question.
A: 1.09

Q: CCCCS(=N)(=O)CCC(N)C(=O)O (configuration not stated) , same question.
A: 0.89

Q: COC(=O)C[C@@H]1C2(C)C(=O)[C@@H](CC3=C4CC(=O)O[C@@H](c5ccoc5)[C@]4(C)CCC32)[C@H](OC(C)=O)C1(C)C (some centres not stated) , same question.
A: 0.96

Q: C=C1CC[C@H](O)C/C1=C/C=C1\CCC[C@]2(C)C([C@H](C)/C=C/[C@H](C)C(C)C)CC[C@@H]12 (some centres not stated) , same question.
A: 1.28

Q: CC1(C)S[C@@H]2[C@H](NC(=O)C(N)c3ccc(O)cc3)C(=O)N2[C@H]1C(=O)O (some centres not stated) , same question.
A: 1.22

Q: COc1cccc2c1C(=O)c1c(O)c3c(c(O)c1C2=O)C[C@@](O)(C(=O)CO)C[C@@H]3OC1C[C@H](N)[C@H](O)[C@H](C)O1 (some centres not stated) , same question.
A: 0.17

Q: C=C(C)[C@@H]1CC[C@]2(CO)CC[C@]3(C)[C@H](CCC4[C@@]5(C)CC[C@H](O)C(C)(C)C5CC[C@]43C)C12 (some centres not stated) , same question.
A: 1.09

----------
# ASSAY_DETAILS: suppressors of polyglutamine aggregation in yeast, 75Q-TubH (AID 1616)
# ASSAY_SETUP: S. cerevisiae 75Q-TubH polyglutamine aggregation suppression; stronger effect = higher value
ASSAY_READOUT: aggregation suppression score
Enter a number only.

Below: 5 compounds and their reported aggregation suppression score.
COMPOUND: NC(N)=Nc1nc(CSCC/C(N)=N\S(N)(=O)=O)cs1
aggregation suppression score: 1.04
--
COMPOUND: CC(=O)OCC(=O)[C@@]1(O)CCC2C3CCC4=CC(=O)CC[C@]4(C)C3C(=O)C[C@@]21C (stereo partly specified)
aggregation suppression score: 0.738
--
COMPOUND: C=CC[C@@H]1/C=C(\C)C[C@H](C)C[C@H](OC)[C@H]2O[C@@](O)(C(=O)C(=O)N3CCCC[C@H]3C(=O)O[C@H](/C(C)=C/[C@@H]3CC[C@@H](O)[C@H](OC)C3)[C@H](C)[C@@H](O)CC1=O)[C@H](C)C[C@@H]2OC
aggregation suppression score: 0.207
--
COMPOUND: CO[C@H]1C[C@H](O[C@H]2[C@H](C)[C@@H](OC3O[C@H](C)C[C@H](N(C)C)[C@H]3O)[C@@H](C)C[C@]3(CO3)C(=O)[C@H](C)[C@@H](O)[C@@H](C)[C@@H](C)OC(=O)[C@@H]2C)O[C@@H](C)[C@@H]1O (stereo partly specified)
aggregation suppression score: 1.24
--
COMPOUND: CC(=O)[C@H]1CCC2C3C[C@H](C)C4=CC(=O)CC[C@]4(C)C3[C@@H](O)C[C@@]21C (stereo partly specified)
aggregation suppression score: 0.683

Read the next record carefully.
Q: Which measured aggregation suppression score value corresponds to CN1CCN(C(c2ccccc2)c2ccc(Cl)cc2)CC1 (stereo unspecified) ?
A: 0.963

----------
Parameter inhibition: see the listing below.
# ASSAY_DETAILS: UWB1.289_BRCA1 ovarian cancer growth, cell-based, BGB or cisplatin combinations (AID 1671459)
# ASSAY_SETUP: UWB1.289 BRCA1 ovarian carcinoma, drug combinations, cisplatin combination, concentration series, at 5 µM, stronger effect = higher value
Field format: number, assumed %, no unit text.

Below: 5 molecules and their reported inhibition.
MOLECULE: O=c1ncccn1[C@@H]1O[C@H](CO)[C@@H](O)[C@H]1O
QUANTITY_UNIT: %
inhibition: -22.8
//
MOLECULE: O=c1cc(-c2cccc3c2Sc2ccccc2S3)oc(N2CCOCC2)c1
QUANTITY_UNIT: %
inhibition: -3.21
//
MOLECULE: Cc1c(-c2cnccn2)ssc1=S
QUANTITY_UNIT: %
inhibition: -10.4
//
MOLECULE: O=C(Nc1ccccc1)c1ccccc1O
QUANTITY_UNIT: %
inhibition: 20.1
//
MOLECULE: CO[C@H]1/C=C/O[C@@]2(C)Oc3c(C)c(O)c4c(O)c(c(C=NN5CCN(C)CC5)c(O)c4c3C2=O)NC(=O)/C(C)=C\C=C\[C@H](C)[C@H](O)[C@@H](C)[C@@H](O)[C@@H](C)[C@H](OC(C)=O)[C@@H]1C
QUANTITY_UNIT: %
inhibition: 22

Q: Which measured inhibition value corresponds to O=C(Nc1ccncc1)c1cc([N+](=O)[O-])ccc1Cl ?
A: -9.35

Q: NC(=O)c1ncn(C2OC(CO)C(O)C2O)n1 (stereo not drawn) , same question.
A: 1.04

Q: CC(C)N=c1cc2n(-c3ccc(Cl)cc3)c3ccccc3nc-2cc1Nc1ccc(Cl)cc1 , same question.
A: 14.7

Cited source for all entries: PubChem BioAssay
